// provenance: paper PMC4447949

- System: Etv1 C416S (human, UniProt P50549 326-429, C416S)
- Sequence (P50549 326-429 C416S): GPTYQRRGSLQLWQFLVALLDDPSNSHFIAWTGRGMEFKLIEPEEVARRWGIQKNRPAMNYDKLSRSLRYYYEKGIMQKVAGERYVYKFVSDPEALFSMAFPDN
- Procedure Details: EMSA; 0.1 nM probe; EMSA: 50 mM Tris-HCl pH 7.5, 50 mM NaCl, 2 mM MgCl2, 0.01% Tween 20, 5% glycerol, 1 h at room temperature; proteins reduced with 10 mM TCEP unless stated; 10% native PAGE
- Experimental Setup: protein: recombinant; tags: N-terminal His6 removed by TEV (leaves SM); blunt
Assay Metric: pKd
As a rule, pKd stands for the negative log10 of the concentration, concentration in M.

Exercise: Any idea what its pKd is? The binder is Etv1ALF/Etv1ALR EMSA probe (dsDNA) DNA 1: ATCTCACCGGAAGTGTAGCA DNA 2: TGCTACACTTCCGGTGAGAT
Solution: 9.59
